test.system: human A2b adenosine receptor (Homo sapiens (Human))
procedure.details: A2B antagonism in cAMP cell-based assay (LANCE cAMP, HEK293 cells, 600 nM adenosine)
stated.conditions: values marked *: cAMP cell-based assay
readout.label: pIC50
Keep it numeric: pIC50 is minus log10 of the concentration in mol/L.

Here are 2 molecules together with their reported answers.
Quick one: give measured pIC50 for COc1cccc2c1nc(N)n1nc([C@@H]3CCCN(c4cnn5ncccc45)C3)nc21 [Example 12]
6.98

Quick one: give measured pIC50 for COc1cccc2c1nc(N)n1nc([C@@H]3CCCN(c4cc(C(F)(F)F)nn4C)C3)nc21 [Example 77]
6.27

Now turn to the next molecule.
Quick one: give measured pIC50 for COc1cccc2c1nc(N)n1nc([C@@H]3CCCN(c4cnn(CC5(O)CCC5)c4C)C3)nc21 [Example 34]
6.66

====

test.system: human A2b adenosine receptor (Homo sapiens (Human), UniProt P29275)
Sequence (P29275 whole entry): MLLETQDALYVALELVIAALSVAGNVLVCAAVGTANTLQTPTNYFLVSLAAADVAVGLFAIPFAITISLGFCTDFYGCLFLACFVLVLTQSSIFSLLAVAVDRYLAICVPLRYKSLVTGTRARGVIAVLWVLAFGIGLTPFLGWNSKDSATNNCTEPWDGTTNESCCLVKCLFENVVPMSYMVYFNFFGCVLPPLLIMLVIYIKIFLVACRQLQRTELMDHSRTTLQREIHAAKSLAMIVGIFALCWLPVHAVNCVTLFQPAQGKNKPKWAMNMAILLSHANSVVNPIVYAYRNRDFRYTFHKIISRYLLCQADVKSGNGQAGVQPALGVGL
procedure.details: A2B antagonism in cAMP cell-based assay (LANCE cAMP, HEK293 cells, 600 nM adenosine)
stated.conditions: values marked *: cAMP cell-based assay
readout.label: IC50 (nM)
Output spec: scalar in nM, unitless text.

Here are 5 molecules together with their reported answers.
Quick one: give measured IC50 for CC[C@@H]1CC[C@H](c2nc3c4cccc(OC)c4nc(N)n3n2)CN1c1cnn(CC(C)(C)O)c1 (single isomer, unassigned) [Example 216D]
491

Quick one: give measured IC50 for COc1ccc2c(c1)nc(N)n1nc([C@@H]3CCCN(c4cnn([C@H](C)[C@@H](C)O)c4)C3)nc21 [Example 220B]
52.8

Quick one: give measured IC50 for "COc1cccc2c1nc(N)n1nc([C@@H]3CCCN(c4cnn(C)c4C)C3)nc21"
252

Quick one: give measured IC50 for "CCC(O)(CC)Cn1cc(N2CCC[C@@H](c3nc4c5cccc(OC)c5nc(N)n4n3)C2)cn1"
19.7

Quick one: give measured IC50 for "COc1cccc2c1nc(N)n1nc([C@@H]3CCN(c4cnn(CC(F)(F)F)c4)C3)nc21"
29.5

Now turn to the next molecule.
Quick one: give measured IC50 for CC[C@H]1CC[C@H](c2nc3c4ccc(OC)cc4nc(N)n3n2)CN1c1cnn(C(C)(C)CO)c1 [Example 215C]
1330

====

test.system: UniProtKB P29275
procedure.details: A2B antagonism in cAMP cell-based assay (LANCE cAMP, HEK293 cells, 600 nM adenosine)
stated.conditions: values marked *: cAMP cell-based assay
Documented pIC50 across a set of compounds
Keep it numeric: pIC50 is minus log10 of the concentration in mol/L.

Quick one: give measured pIC50 for COc1cccc2c1nc(N)n1nc(C3CCC(C)N(c4cnn(CC(F)(F)F)c4)C3)nc21 (single isomer, unassigned) [Example 142D]
8.03

Quick one: give measured pIC50 for "COc1cccc2c1nc(N)n1nc([C@@H]3CCCN(c4cnn(C5COC5)c4)C3)nc21"
7.53

Quick one: give measured pIC50 for "COc1ccc(F)c2c1nc(N)n1nc([C@@H]3CC[C@H](C)N(c4cnn(CC(C)(C)O)c4)C3)nc21"
8.02

Quick one: give measured pIC50 for COc1cccc2c1nc(N)n1nc(C3CCC(C)N(c4cnn(CC(F)(F)F)c4)C3)nc21 (single isomer, unassigned) [Example 142B]
5.94

Quick one: give measured pIC50 for "COc1cccc2c1nc(N)n1nc([C@@H]3CCCN(c4ncc[nH]4)C3)nc21"
7.74

Others:
Quick one: give measured pIC50 for COc1ccc2c(c1)nc(N)n1nc([C@@H]3CCCN(c4cnn(C(C)(C)[C@@H](C)O)c4)C3)nc21 [Example 225B]
7.11

Quick one: give measured pIC50 for "COc1cccc2c1nc(N)n1nc([C@@H]3CCCN(c4c(C)nn(C)c4C)C3)nc21"
5.43

Quick one: give measured pIC50 for "COc1cccc2c1nc(N)n1nc([C@@H]3CCCN(c4cnn(CC5(O)CCCC5)c4)C3)nc21"
7.65

====

test.system: human A2b adenosine receptor (Homo sapiens (Human), UniProt P29275)
procedure.details: A2b radioligand filtration binding assay (tritiated proprietary A2b antagonist, HEK293 membranes)
stated.conditions: unstarred values: radioligand binding
pIC50: −log10 of the molar value.
# label = 1 (yes) if pIC50 >= 7 else 0 (no)

Example entries begin here.
Given "COc1cccc2c1nc(N)n1nc([C@@H]3CCCN(c4cnn(C5CCOCC5)c4C)C3)nc21" , state whether its pIC50 is at least 7.
0 (no)

Given COc1cccc2c1nc(N)n1nc(C3CN(c4cnn(CC(C)(C)O)c4C)CC(F)(F)C3)nc21 (single isomer, unassigned) [Example 159B] , state whether its pIC50 is at least 7.
0 (no)

Could you now consider this next compound?
Given "COc1cccc2c1nc(N)n1nc([C@@H]3CCCN(c4cnn(C5CCOCC5)c4C(F)F)C3)nc21" , state whether its pIC50 is at least 7.
1 (yes)

====

test.system: human A2a adenosine receptor (Homo sapiens (Human))
procedure.details: A2a receptor affinity radioligand binding assay ([3H] SCH58261, membranes from HEK293 or CHO cells)
stated.conditions: unstarred values: radioligand binding
pIC50: −log10 of the molar value.
# label = 1 if pIC50 >= 9 else -1

Given COc1cccc2c1nc(N)n1nc([C@@H]3CCCN(c4cnn(C5CCCC5O)c4)C3)nc21 (stereo partly drawn) [Example 58A] , state whether its pIC50 is at least 9.
1

Given Cc1ccc2c(nc(N)n3nc(C4CCCN(c5cnn(C)c5)C4)nc23)c1C (single isomer, unassigned) [Example 167] , state whether its pIC50 is at least 9.
-1

Given COc1cccc2c1nc(N)n1nc([C@@H]3CCCN(c4ncc(C(F)(F)F)cn4)C3)nc21 [Example 109] , state whether its pIC50 is at least 9.
-1

Given COc1cccc2c1nc(N)n1nc([C@@H]3CCCN(c4nnc(C)o4)C3)nc21 [Example 82] , state whether its pIC50 is at least 9.
-1

Given COc1ccc2c(c1)nc(N)n1nc([C@@H]3CCCN(c4cnn([C@@H]5CCC[C@H]5O)c4)C3)nc21 [Example 187A] , state whether its pIC50 is at least 9.
-1

Others:
Given COc1ccc2c(c1)nc(N)n1nc([C@@H]3CC[C@H](C)N(c4cnn([C@@H](C)C(C)(C)O)c4)C3)nc21 [Example 211A] , state whether its pIC50 is at least 9.
1

Given COc1cccc2c1nc(N)n1nc([C@@H]3CCCN(c4cnn(C5COC5)c4)C3)nc21 [Example 39] , state whether its pIC50 is at least 9.
-1

====

test.system: human A2a adenosine receptor (Homo sapiens (Human), UniProt P29274)
Sequence (P29274 whole entry): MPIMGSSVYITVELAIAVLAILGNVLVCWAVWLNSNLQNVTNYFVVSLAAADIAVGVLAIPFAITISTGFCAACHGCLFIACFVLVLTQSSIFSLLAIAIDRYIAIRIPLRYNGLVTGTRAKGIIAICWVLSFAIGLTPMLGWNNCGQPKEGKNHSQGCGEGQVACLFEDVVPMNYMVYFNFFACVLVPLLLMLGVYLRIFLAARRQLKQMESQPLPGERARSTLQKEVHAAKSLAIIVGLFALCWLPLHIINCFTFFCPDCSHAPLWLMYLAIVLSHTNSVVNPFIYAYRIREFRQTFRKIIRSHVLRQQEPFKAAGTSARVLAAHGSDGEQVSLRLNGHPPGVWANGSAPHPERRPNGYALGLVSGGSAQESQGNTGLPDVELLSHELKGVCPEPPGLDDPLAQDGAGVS
procedure.details: A2a receptor affinity radioligand binding assay ([3H] SCH58261, membranes from HEK293 or CHO cells)
stated.conditions: unstarred values: radioligand binding
Checkbox rule: IC50 lower than 0.7 nM = class 1; IC50 not lower than 0.7 nM = class 0.

Example entries begin here.
Find out if reported IC50 for COc1ccc2c(c1)nc(N)n1nc([C@H]3C[C@H](C(F)(F)F)CN(c4cnn(CC(C)(C)O)c4)C3)nc21 (single isomer, unassigned) [Example 218A] is less than 0.7 nM
class 0

Find out if reported IC50 for COc1cccc2c1nc(N)n1nc([C@@H]3CCCN(c4cn(C5CCOCC5)nc4C(F)F)C3)nc21 [Example 48] is less than 0.7 nM
class 1

Find out if reported IC50 for COc1cccc2c1nc(N)n1nc([C@@H]3CCCN(c4nn(C)nc4C)C3)nc21 [Example 70] is less than 0.7 nM
class 0

Find out if reported IC50 for COc1ccc(F)c2c1nc(N)n1nc([C@@H]3CC[C@H](C)N(c4cnn(CC(C)(C)O)c4)C3)nc21 [Example 224] is less than 0.7 nM
class 1

Find out if reported IC50 for COc1ccc2c(c1)nc(N)n1nc([C@@H]3CCCN(c4ccc(OC(C)C)nc4)C3)nc21 [Example 192] is less than 0.7 nM
class 0

Find out if reported IC50 for Cc1cccc2c1nc(N)n1nc(C3CCCN(c4cnn(C)c4)C3)nc21 (single isomer, unassigned) [Example 171] is less than 0.7 nM
class 0

Find out if reported IC50 for COc1cccc2c1nc(N)n1nc(C3CCCN(c4cnn(C)c4)[C@H]3C)nc21 (some centres unmarked) [Example 128A] is less than 0.7 nM
class 0

Find out if reported IC50 for COc1cccc2c1nc(N)n1nc([C@@H]3CCCN(c4cnn(C5CCOCC5)c4C)C3)nc21 [Example 47] is less than 0.7 nM
class 1

Find out if reported IC50 for Cn1cc(N2CCCC(c3nc4c5cccc(F)c5nc(N)n4n3)C2)cn1 (single isomer, unassigned) [Example 131A] is less than 0.7 nM
class 0

Find out if reported IC50 for COc1ccc2c(c1)nc(N)n1nc([C@@H]3C[C@H](C)CN(c4cn([C@H](C)[C@@H](C)O)nc4C)C3)nc21 [Example 219B] is less than 0.7 nM
class 1

Others:
Find out if reported IC50 for COc1ccc2c(c1)nc(N)n1nc([C@@H]3C[C@H](F)CN(c4cn(CC(C)(C)O)nc4C)C3)nc21 [Example 197B] is less than 0.7 nM
class 1
